- System: pylorous ligated rats
- assay text: Antisecretory activity in the pylorous ligated rat model
- Format: in vivo, male Sprague-Dawley rats
- condition details: Rattus norvegicus, 4 h; oral dose 25 mg/kg; read-out: Percent inhibition of volume
Counter-ions that a name gives are not always drawn.
Could you label it criterion met if measured inhibition in vivo at 25 mg/kg is 20% or higher, and criterion not met otherwise?

Request: Assess whether reported inhibition in vivo at 25 mg/kg for CC(C)c1cc(O)c(C2=CCN(C)CC2)c(O)c1.Cl [Example VI, hydrochloride] sits at 20% or higher.
Result: criterion met

Request: Assess whether reported inhibition in vivo at 25 mg/kg for CCCCCc1cc(O)c(C2CCN(CCc3ccccc3)CC2)c(O)c1 [Example XXI, hydrochloride] sits at 20% or higher.
Result: criterion met

Request: Assess whether reported inhibition in vivo at 25 mg/kg for CCCCCC(C)C(C)c1cc(O)c(C2=CCN(C)CC2)c(O)c1 (centres unmarked) sits at 20% or higher.
Result: criterion not met

Request: Assess whether reported inhibition in vivo at 25 mg/kg for CCCCCC(C)C(C)c1cc(O)c(C2=CCN(Cc3ccccc3)CC2)c(O)c1.Cl (centres unmarked) [Example XIV, hydrochloride] sits at 20% or higher.
Result: criterion not met

Request: Assess whether reported inhibition in vivo at 25 mg/kg for CCCCCC(C)C(C)c1cc(O)c(C2=CCN(CCc3ccccc3)CC2)c(O)c1 (centres unmarked) [Example XX, hydrochloride] sits at 20% or higher.
Result: criterion not met
